Reported melting point values are given for each entry in this list.

Worked cases, answers included:
molecule: O=C(Oc1ccccc1)N1CCc2[nH]c3c(cnc4cc(Cl)ccc43)c2C1
reported-value: > 250 °C
//
molecule: COC(=O)Cn1c(-c2ccccc2Cl)nc2cccnc21
reported-value: 198 to 200 °C
//
molecule: CCn1cnc(/C=C/c2cn(-c3ccccc3)nc2OCc2ccc(OCc3nc(-c4ccc(CC(=O)O)cc4)oc3C)c(OC)c2)c1
reported-value: 194 to 196 °C
//
molecule: CN(C)c1ccc(-c2nnc(N3CCC(O)CC3)nc2-c2ccc(N(C)C)cc2)cc1
reported-value: 186 to 188 °C
//
molecule: Cc1cc(C(=O)c2ccccc2)ccc1NC(=O)C(C)(O)C(F)(F)F (stereo not drawn)
reported-value: 123 to 124 °C

Now, please, on to the next molecule.
get_value(item= CCCCCCCCCCCCCCC(O)C(O)C(N)CO (stereo not drawn) , readout=melting point) returns 132 to 134 °C

---

Reported melting point values are given for each entry in this list.

compound: CC(=O)OCC1OC(Cl)C(N=[N+]=[N-])C(OC(C)=O)C1OC1OC(COC(C)=O)C(OC(C)=O)C(OC(C)=O)C1OC(C)=O (stereo not drawn)
melting point: 167 to 168 °C

get_value(item= COC(=O)c1ccc(CC(C=O)c2cc(C(=O)OC)ccc2[N+](=O)[O-])c(OC)c1 (stereo not drawn) , readout=melting point) returns 117 to 120 °C

get_value(item= Cc1cccc(-c2[nH]c(C3CC3)nc2-c2cccc(-c3ccc(C(=O)NC4CCOCC4)cc3)c2)n1 , readout=melting point) returns 127 to 128 °C

get_value(item= Oc1cccc(Oc2nnc(Cc3ccncc3)c3ccccc23)c1 , readout=melting point) returns 206 to 207 °C

get_value(item= COc1cc(C2=NC(C)(C)CO2)cc(OC)c1SC , readout=melting point) returns 82.5 to 84.5 °C

get_value(item= COC(=O)C(=O)N1C(=O)[C@H](N2C(=O)c3ccccc3C2=O)[C@H]1Cl , readout=melting point) returns 49 to 52 °C

get_value(item= Cc1ccc(OCCN2CCN(c3cc(Cl)nnc3Cl)CC2)cc1 , readout=melting point) returns 95 to 96 °C

get_value(item= CN(C(=O)OC(C)(C)C)C(S)=NC(=O)OC(C)(C)C , readout=melting point) returns 118 °C

get_value(item= COc1cc(COc2nn(-c3ccccc3)cc2CC#N)ccc1OCc1nc(-c2ccccc2)oc1C , readout=melting point) returns 137 to 138 °C

get_value(item= CCOC(=O)c1cn(-c2ccc(C(F)(F)F)cc2)nc1C(C)C , readout=melting point) returns 74 to 75 °C

get_value(item= COc1cc2c(cc1Nc1ncc3ccc(-c4ccccc4OC)n3n1)CN(C)C2 , readout=melting point) returns 136 to 141 °C

get_value(item= C#Cc1cc(C)c(Oc2ccc([N+](=O)[O-])c(Nc3ccc(C#N)cc3)n2)c(C)c1 , readout=melting point) returns 186 to 188 °C

get_value(item= CCCOn1c(C)nc(N2CCc3ccccc3CC2)c(C#N)c1=O , readout=melting point) returns 132 to 134 °C

get_value(item= Cc1oc(-c2ccccc2Cl)nc1CCOc1ccc([N+](=O)[O-])cn1 , readout=melting point) returns 100 to 101 °C

get_value(item= CCC1N=C(c2ccccc2Cl)c2cc(CCC(=O)O)sc2-n2c(C)nnc21 (stereo not drawn) , readout=melting point) returns 218 to 220 °C

get_value(item= CC(C)(C)OC(=O)N1CC(CC=O)C1 , readout=melting point) returns 52 to 54 °C

get_value(item= CCOC(=O)c1cnc2ccnn2c1O , readout=melting point) returns 81 °C

get_value(item= CC(NC(=O)OCc1ccccc1)NC(=O)C1C(C)(C)CCC1(C)C (stereo not drawn) , readout=melting point) returns 146 °C

get_value(item= CC(=Cn1ccnc1)C(=O)c1ccc(Cl)cc1Cl , readout=melting point) returns 129 to 130 °C

get_value(item= CC(=O)C(Cc1nsc2ccc(-n3c(=O)cc(C(F)(F)F)n(C)c3=O)cc12)C(=O)O (stereo not drawn) , readout=melting point) returns 191 to 193 °C

get_value(item= CCCCCC(=O)CCCCc1ccc(O)c(O)c1 , readout=melting point) returns 76 to 78 °C

get_value(item= [O-][N+](=Cc1ccc(OCc2ccccc2)cc1)C1CCCCCCC1 , readout=melting point) returns 108 °C

get_value(item= COC(=O)c1ccc(-c2nc(-c3ccc4c(c3)C(C)(C)CCC4(C)C)no2)cc1 , readout=melting point) returns 166 to 168 °C

get_value(item= NC(=O)CNC(=O)c1cccc(-c2ccc(F)c3cc(Cc4ccc(F)c(F)c4)sc23)c1 , readout=melting point) returns 161 to 162 °C

---

quantity: melting point

Worked cases, answers included:
compound: CC(C)(C(=O)O)C(=O)Oc1ccc(C(=O)c2ccccc2)cc1
reported-value: 147 to 150 °C
--
compound: CN1CCN(C2CC3C4CCC5CC6OC6CC5(C)C4CCC3(C)C2O)CC1 (stereo unspecified)
reported-value: 149 to 153 °C
--
compound: CNC(=NS(C)(=O)=O)NCCCCc1nc(NC(N)=NCC(F)(F)F)sc1C
reported-value: 165 to 166 °C
--
compound: Cc1nn(-c2ccc(C(F)(F)F)cn2)cc1CCCOc1cc(CCC(=O)O)n(-c2ccccc2)n1
reported-value: 125 to 126 °C
--
compound: Cc1cc(C(=O)NC2CC2)ccc1N1CCNCC1
reported-value: 172 to 173 °C

get_value(item= OC(c1ccccc1)c1ccc2nc3ccc(C(O)c4ccccc4)cc3c(-c3ccccc3)c2c1 (stereo unspecified) , readout=melting point) returns > 280 °C

---

quantity: melting point

Worked cases, answers included:
compound: CCCCCCCCCCCCCCCCCCOCC(CO)NC(C)=O (stereo not given)
melting point: 82 to 85 °C
--
compound: COc1cc2ncnc(N3CCN(C(=O)Nc4ccc(CN5CCCCC5)cc4)CC3)c2cc1OC
melting point: 122 to 123 °C
--
compound: Cc1c(C(=O)NN2CCCCC2)nn(-c2ccc(Cl)cc2Cl)c1-c1ccc(Cl)cc1
melting point: 148 °C
--
compound: Brc1cccc(Sc2ncccc2OCCCc2cccnc2)c1
melting point: 75 to 76 °C

Now, please, on to the next compound.
get_value(item= CC(C)N(C[C@@H]1CCC[C@H](CN(C(=O)Nc2ccc(N(C)C)cc2)C(C)C)C1)C(=O)Nc1ccc(N(C)C)cc1 , readout=melting point) returns 139 to 141 °C

---

quantity: melting point

Worked cases, answers included:
compound: COc1cccc2nc3[nH]c(=O)[nH]c3cc12
melting point: > 300 °C
//
compound: CCCc1nc2c(N)nc3cccnc3c2n1CCCCN(OC)C(=O)c1ccccc1
melting point: 125 to 127 °C
//
compound: CCCCNC(=O)NS(=O)(=O)c1cccc2c1OC(C)(C)C2
melting point: 200 to 203 °C
//
compound: CCCCCCCCCCCCNC(=O)c1cc(Br)c(OCCn2cnnn2)c(-c2cccc(C(F)(F)F)c2)c1
melting point: 91.5 to 92.6 °C
//
compound: Cc1ccc(-c2nn(C(C)(C)C(=O)N(C)C)cc2C)c(Cl)c1
melting point: 126 to 128 °C

get_value(item= CC(=O)NCC1CN(c2ccc(N3CCN(C(=O)COC(C)=O)CC3)c(F)c2)C(=O)O1 (stereo not given) , readout=melting point) returns 199 to 201 °C

get_value(item= CCCn1cc(Cc2ccc(C(=O)O)cc2OC)c2cc(CCNC(=O)N3CCOCC3)ccc21 , readout=melting point) returns 105 to 113 °C

get_value(item= O=c1n(-c2cc(O)c([N+](=O)[O-])cc2F)nc2ccc(Cl)cn12 , readout=melting point) returns 207 to 209 °C

get_value(item= CCc1nn(C(=O)CCCN2CCOCC2)c(CC)c1CCCCCCOc1ccc(OC)cc1Cl , readout=melting point) returns 93 to 95 °C

get_value(item= COc1cncc(-c2cncc(OC3SCC(O)C(O)C3O)c2)c1 (stereo not given) , readout=melting point) returns 193 °C

---

Reported melting point values are given for each entry in this list.

Worked cases, answers included:
compound: CCCCCCC(C)(C)c1ccc(C2=CCCN(CC3CC3)C2)c(O)c1
melting point: 118 °C
--
compound: CCNc1nc(Cl)cc(NS(=O)(=O)c2ccc(N)cc2)n1
melting point: 172 to 173 °C
--
compound: Cc1c2n(c3ccccc13)C(=O)C(C(O)c1ncc[nH]1)CC2 (stereo unspecified)
melting point: 199 to 200 °C

get_value(item= COC(=O)N1CC(C(N)=O)C(c2ccc(OC)c(OC3CCCC3)c2)C1 (stereo unspecified) , readout=melting point) returns 130 to 132 °C

get_value(item= CN1Cc2cncn2-c2ccc(F)cc2C1=O , readout=melting point) returns 236 °C

get_value(item= CC(C(=O)O)N(O)C(C)(C)C (stereo unspecified) , readout=melting point) returns 73 to 74 °C

get_value(item= c1ccc(Cn2cc3c(c2)OCCO3)cc1 , readout=melting point) returns 69 to 70 °C

get_value(item= Cc1nc(N2CCN(Cc3ccc(Cl)cc3)C2=O)sc1C(=O)NCc1cccnc1 , readout=melting point) returns 178 to 179 °C

get_value(item= O=C(Nc1ccc(C[C@H](NS(=O)(=O)N2CCCCCC2)C(=O)O)cc1)c1c(Cl)cncc1Cl , readout=melting point) returns 185 °C

get_value(item= C=C[C@@H]1Oc2ccccc2[C@H]1CC(=O)O (relative stereo) , readout=melting point) returns 79 to 81 °C

get_value(item= NC(=O)c1ccc(Cl)c2c1C=C([N+](=O)[O-])CO2 , readout=melting point) returns 225 to 227 °C

get_value(item= CN(C)C(=O)COC[C@@H]1CC(c2ccc(-c3ccc(N4C[C@H](Cn5ccnn5)OC4=O)cc3F)cn2)=NO1 , readout=melting point) returns 166 to 168 °C

get_value(item= N#Cc1ccc(OCC[C@@H](NC(=O)OCc2ccccc2)C(=O)OC(c2ccccc2)c2ccccc2)cc1 , readout=melting point) returns 125 to 126 °C

get_value(item= Nc1noc2cc3c(cc12)C1(CO3)C(=O)N(Cc2ccccn2)c2ccccc21 (stereo unspecified) , readout=melting point) returns 190 to 192 °C

get_value(item= O=C(c1ccc(OC(F)(F)F)cc1)N1CCc2cc(S(=O)(=O)N3CC(c4ccccc4)NC3=O)ccc21 (stereo unspecified) , readout=melting point) returns 180 to 182 °C

get_value(item= COc1ccc(NC(=O)c2ccc([N+](=O)[O-])cc2NC(=O)c2ccc(C(C)(C)C)cc2)cc1 , readout=melting point) returns 221 °C

get_value(item= O=C(O)CC1=C(Cc2ccc3ccccc3c2)C(=O)CCC1 , readout=melting point) returns 78 to 80 °C
